Measured IC50 of individual entries
Tested on: HepG2 cells
assay.procedure: HepG2 cytotoxicity assay
experimental.parameters: read-out: HepG2 cytotoxicity assay IC50; dose response confirmation
measure.name: IC50 (µM)

> print(dat)
                                    compound  value.reported
 1  CCOC(=O)NC1=NC(=N)N(OCCCOc2cc(Cl)c(Cl)cc2Cl)C(C)(C)N1           0.001
 2  CNC(=O)c1ccccc1Nc1nc(Nc2ccc(CCN3CCN(C)CC3)cc2)ncc1Cl.Cl            2.26
 3  Cc1[nH]c(C)c(-c2ccc(OCc3ccc(F)cc3)cc2)c(=O)c1Br             100
 4  COc1ccc2nccc([C@@H](O)CN3CCC(NC(=O)c4cc5ccccc5[nH]4)CC3)c2c1.CS(=O)(=O)O            50.7
 5  CC(C)(CN)c1cc(-c2ccc(Cl)c(O)c2)c(-c2ccncc2)o1.Cl            20.7
 6  O=C(c1cc(-c2ccco2)[nH]n1)N1CCN(S(=O)(=O)c2ccc(Cl)cc2)CC1             100
 7             O=c1c2ccccc2[nH]c2cc(Cl)ccc12            50.7
 8  CCOC(=O)c1c(CN2CCCC2)n(-c2ccccc2)c2cc(Br)c(O)cc12            71.6
 9  O=C(Nc1ccc(Cl)cc1)c1cc(Cl)cc2nc(C(F)(F)F)[nH]c12            2.04
10  Cl.NCC1(c2nc(-c3ccc(Cl)c(O)c3)c(-c3ccncc3)[nH]2)CCCCC1            46.8
11     C=Cc1ccc(-c2c(C)[nH]c(C)c(Br)c2=O)cc1            57.5
12      CN(C)c1ccc(C=Cc2nc(=O)c3ccccc3o2)cc1             100
13  Cc1cccc(Nc2nc(NCCCCN)nc3cc[nH]c(=O)c23)c1.O=C(O)C(F)(F)F            28.8
14             CCCCCCCc1c(C)nc2cccc(OC)c2c1O             5.5
15  COc1ccc2nccc([C@@H](O)CN3CCC(NCc4cc5c(F)ccc(F)c5[nH]4)CC3)c2n1.CS(=O)(=O)O            14.1
16     Cc1c(Cc2ccccc2Br)cnc2nc(N)nc(N)c12.Cl         0.00776
17  CCCCC1=CC2C(=O)C(C(=O)OC)=CN=C2C=C1OCc1ccccc1 (stereo not drawn)             100
18  Cl.O=c1cc(NCCCNCc2sc(Br)c(Br)c2Br)[nH]c2ccccc12            34.7

---

Tested on: HepG2 cells
assay.procedure: HepG2 cytotoxicity assay
experimental.parameters: read-out: HepG2 cytotoxicity assay IC50; dose response confirmation
Description: Briefly, HepG2 cells were seeded onto compound-treated 384 well plates at a density of 2,500 cells per well in Minimal Essential Medium (MEM) plus 10% fetal bovine serum and 1% non-essential amino acids solution (NEAA). […] Cell viability was then measured in a fluorescent plate reader and percent inhibition calculated with respect to positive and negative controls.
measure.name: log10 of IC50 (log10 of the value in µM)

> print(dat)
                               smiles.input  tested.target  value.reported
1  COc1cccc(CNCC(C)(C)c2nc(-c3ccc(Cl)c(O)c3)c(-c3ccncc3)[nH]2)c1.Cl    HepG2 cells            0.70
2  CC(C)(CN)c1nc(-c2ccc(Cl)c(O)c2)c(-c2ccncc2)[nH]1.Cl    HepG2 cells            0.22
3                  Cc1[nH]c2ccccc2c(=O)c1Br    HepG2 cells            2.00
4  COCCn1c(-c2cccc(Cl)c2)nn(-c2ccc([N+](=O)[O-])cc2Cl)c1=S    HepG2 cells            2.00
5  Cc1[nH]c(C)c(-c2ccc(-c3ccccc3Cl)nc2)c(=O)c1Br    HepG2 cells           -0.85
6  O=C(Nc1ccc(OC2CCN(Cc3ccc(F)cc3)CC2)c(Cl)c1)c1cccs1.O=C(O)C(F)(F)F    HepG2 cells            1.59
7       CSc1ccc(C=CC(=O)NC(=O)c2ccccc2O)cc1    HepG2 cells            1.87
8              CCCCCCc1c(C)nc2cc(OC)ccc2c1O    HepG2 cells            2.00
9           CCCCCCCCCc1c(C)[nH]c2ccccc2c1=O    HepG2 cells            1.83

---

Measured Unified cytotox of individual entries
System: HepG2 cells
assay.procedure: HepG2 cytotoxicity assay
experimental.parameters: HepG2 values of the three screens unified
measure.name: Unified cytotox (µM)

> print(dat)
                                   compound     measure.name  unit.tag  value.reported
1  COc1ccc2ccccc2c1CNCCCCCCNCc1c(OC)ccc2ccccc12.Cl [TCMDC-137915]  Unified cytotox        µM            3.90
2  COc1ccc2ncc(F)c(CCN3CCC(NC(=O)c4ccc5c(n4)NC(=O)CS5)C(O)C3)c2n1 (centres unmarked) [TCMDC-135907]  Unified cytotox        µM           42.17
3  CCc1cc2c3c(N)nc(N)nc3ccc2n1C(C)CC (centres unmarked) [TCMDC-137308]  Unified cytotox        µM          0.0017
4  CCc1cc2c3c(N)nc(N)nc3ccc2n1CC [TCMDC-137851]  Unified cytotox        µM          0.0224
5  CC(C)(CN)c1nc(-c2ccc(Br)c(O)c2)c(-c2ccncc2)[nH]1.Cl [TCMDC-140680]  Unified cytotox        µM           46.57

---

System: P. berghei ookinete development
experimental.parameters: read-out: Pb Ookinete development assay IC50; dose response confirmation
So basically every entry gets a class from its IC50, ranges being band 1 = under 700 nM, band 2 = from 700 nM up to 2000 nM, band 3 = 2000 nM and over

> print(dat)
                                   molecule                    tested.target  qualitative.label
1  Cl.c1ccc(CN2CCN(CCNc3c4ccccc4nc4ccccc34)CC2)cc1  P. berghei ookinete development             band 3
2  Cl.Nc1nc(N)c2c(ccc3c2cnn3S(=O)(=O)N2CCCC2)n1  P. berghei ookinete development             band 2
3        Nc1nc(N)c2c(ccc3c2ccn3Cc2ccccn2)n1  P. berghei ookinete development             band 3
4  CC[C@@]1(O)C(=O)OCc2c1cc1n(c2=O)Cc2c-1nc1cc3c(cc1c2CN1CCN(C)CC1)OCCO3.Cl  P. berghei ookinete development             band 3
5  C=CCC1OC(=O)c2cc(OC)cc(OC)c21 (stereo not drawn)  P. berghei ookinete development             band 3
6  Nc1nc(N)c2c(ccc3c2ccn3Cc2ccc3c(c2)OCO3)n1  P. berghei ookinete development             band 1
7  O=C(NC1CCN(CC2(c3ccccc3F)CCCC2)CC1)c1ccn[nH]1  P. berghei ookinete development             band 2
8  Cc1[nH]c(C)c(-c2ccc(-c3ccc(OC(F)(F)F)cc3)nc2)c(=O)c1Br  P. berghei ookinete development             band 1

---

System: HepG2 cells
assay.procedure: HepG2 cytotoxicity assay
experimental.parameters: read-out: HepG2 cytotoxicity assay IC50; dose response confirmation
pIC50: −log10 of the molar value.
Measured pIC50 of individual entries
measure.name: pIC50

> print(dat)
                                    compound  value.reported
 1             CCCCCCCc1c(C)nc2c(OC)cccc2c1O            4.00
 2  Cc1[nH]c(C)c(-c2ccc(-c3cccc(Cl)c3)nc2)c(=O)c1Br            4.00
 3  Cc1[nH]c(C)c(-c2ccc(OCCCc3ccccn3)cc2)c(=O)c1Br.Cl            6.77
 4           CC(C)Cn1ncc2c3c(N)nc(N)nc3ccc21            6.96
 5                 O=C(O)CCSSc1cccc[n+]1[O-]            4.51
 6  Cc1[nH]c(C)c(-c2ccc(OCc3cc(C(F)(F)F)cc(C(F)(F)F)c3)nc2)c(=O)c1Cl            5.78
 7  Cc1[nH]c(C)c(-c2ccc(-c3ccc(Cl)cc3)nc2)c(=O)c1Cl            4.00
 8  Br.CC(CON1C(N)=NC(N)=NC1(C)C)c1ccc(Cl)cc1Cl (centres unmarked)            9.00
 9  CCn1cc(C(=O)O)c(=O)c2cc(F)c(N3CCN(S(=O)(=O)c4ccc(N)cc4)CC3)cc21            4.00
10  CCCCN(C)CC#Cc1ccc2[nH]c(C)c(Cl)c(=O)c2c1            5.51
11  Cc1[nH]c(C)c(-c2ccc(-c3cc(C(F)(F)F)cc(C(F)(F)F)c3)nc2)c(=O)c1Br            5.90
12  Br.CC1(C)NC(N)=NC(=N)N1OCCCOc1cc(Cl)ccc1Cl            9.00
13  COc1ccc2nccc([C@@H](O)CN3CCC(NCc4cc5ccc(C#N)cc5[nH]4)CC3)c2c1.O=C(O)C(=O)O            5.81
14  Nc1nc(N)c2c(ccc3c2ccn3Cc2ccc3c(c2)OCO3)n1            7.49
15  COc1cc(NC2=NS(=O)(=O)c3cc(Cl)ccc3N2C)cc(OC)c1OC.O=C(O)C(F)(F)F            4.00
16  Cc1[nH]c(C)c(-c2ccc(-c3ccccc3F)nc2)c(=O)c1Br            4.00
17  O=C(Nc1ccc(N2CCCN(Cc3cccc(F)c3)CC2)cc1)c1cccs1.O=C(O)C(F)(F)F            4.11

Source of measurements: paper PMC6753678
